Measured target: Coagulation factor XII (Homo sapiens) (UniProt P00748)
Sequence (P00748 20-372 limits assumed): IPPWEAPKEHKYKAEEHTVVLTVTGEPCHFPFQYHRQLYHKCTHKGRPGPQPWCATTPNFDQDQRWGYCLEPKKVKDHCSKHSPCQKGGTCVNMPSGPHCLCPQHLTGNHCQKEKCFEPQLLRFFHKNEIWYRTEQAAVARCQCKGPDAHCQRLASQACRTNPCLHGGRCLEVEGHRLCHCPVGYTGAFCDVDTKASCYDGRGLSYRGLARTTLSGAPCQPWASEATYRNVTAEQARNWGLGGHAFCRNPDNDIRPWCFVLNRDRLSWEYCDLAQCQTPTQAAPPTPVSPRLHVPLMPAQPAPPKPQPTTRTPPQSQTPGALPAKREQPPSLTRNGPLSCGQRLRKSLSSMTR
Sequence (P00748 373-615 limits assumed): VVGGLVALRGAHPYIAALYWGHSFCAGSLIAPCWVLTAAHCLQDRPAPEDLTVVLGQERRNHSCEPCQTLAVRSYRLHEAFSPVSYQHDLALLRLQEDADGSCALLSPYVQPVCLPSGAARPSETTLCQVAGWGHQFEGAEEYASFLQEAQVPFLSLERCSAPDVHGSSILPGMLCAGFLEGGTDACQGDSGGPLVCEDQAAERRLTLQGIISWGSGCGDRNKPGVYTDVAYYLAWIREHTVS
Experiment summary: human FXIIa protease inhibitors, primary screen, biochemical, single well (AID 701);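 also: 0% = enzyme with vehicle only and 100% = no enzyme blank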
Conditions used: purified human FXIIa, AMC substrate fluorescence, 2 h; at 10 µM; active compounds read high
Among all 33,000 compounds or so, about 70 (0.2%) were called active. Only a sample is shown.
# Lookup of reported inhibition keyed by entry
Entry rule: numbers only, all in %.

Field request: inhibition | item: Cc1ccc(S(=O)(=O)N2CCC(C(=O)NCC3CCCO3)CC2)cc1 (stereo not given)
2.9

Would you kindly share the measured inhibition for Cc1cc(C(F)(F)F)n2ncc(-c3ccccc3)c2n1 ?
4.27

Give its inhibition value. Item: CCCCc1nnc(NC(=O)CS(=O)(=O)Cc2ccccc2)s1
2.19

Quick one: inhibition for Cc1ccc2cc(CCNC(=O)c3ccc4c(c3)OCO4)c(=O)[nH]c2c1 ?
7.29

Which inhibition is listed for Cc1ccc(S(=O)(=O)/N=C(\CN2CCOCC2)N2CCOCC2)cc1 ?
-13.1
